Entries annotated with measured MIC
test system: Staphylococcus aureus; experiment: Antimicrobial activity against methicillin-sensitive Staphylococcus aureus ATCC 13709; assay type: functional

CCCCCCN1CC(=O)/C(=C(/NC2CCCCC2)C2CCCCC2)C1=O | > 64 µg/mL

q: Provide value of MIC for this record tested with Staphylococcus aureus: CCCCCCCCCN/C(C)=C1/C(=O)N2[C@@H](C(C)(C)C)OC[C@]2(C(=O)OC)C1=O
a: > 32 µg/mL

q: Another molecule to look at: C/C(NC12CC3CC(CC(C3)C1)C2)=C1\C(=O)N2[C@H](C(C)(C)C)OC[C@@]2(C)C1=O (mixture of isomers)
a: > 64 µg/mL

q: Another molecule to look at: CCCCCCC(=O)N1CC(=O)/C(=C(\CCCOc2ccccc2)NCCCOC(C)C)C1=O
a: > 32 µg/mL

q: Another molecule to look at: CCOC(=O)[C@]12CO[C@H](C(C)(C)C)N1C(=O)/C(=C(\C)Nc1ncc(Cl)cn1)C2=O
a: > 32 µg/mL

q: Another molecule to look at: CCCC(=O)N1CC(=O)/C(=C(\CC23CC4CC(CC(C4)C2)C3)NCCCN2CCOCC2)C1=O
a: > 64 µg/mL

q: Another molecule to look at: C/C(Nc1ccccc1)=C1\C(=O)N2[C@H](C(C)(C)C)OC[C@@]2(C)C1=O (racemic)
a: 64 µg/mL

q: Another molecule to look at: CCOC(=O)[C@]12CO[C@H](C(C)(C)C)N1C(=O)/C(=C(\C)NCCCN1CCOCC1)C2=O
a: > 32 µg/mL

---

test system: Enterococcus faecium; assay: Antimicrobial activity against vancomycin-resistant Enterococcus faecium; assay type: functional
MEASUREMENT_LABEL: MIC

# count of solved cases: 4
CCCCCCCCC/C(=C1\C(=O)CNC1=O)N1CCCCC1 | 8 µg/mL
CC(=O)NC[C@H]1CN(c2ccc(N3CCOCC3)c(F)c2)C(=O)O1 | 2 µg/mL
O=C1CNC(=O)/C1=C(\NCc1ccccc1)c1cccc2ccccc12 | > 32 µg/mL
C/C(NCCOc1ccccc1Cl)=C1/C(=O)CNC1=O | > 32 µg/mL

Please examine the following record next.
q: Provide value of MIC for this record tested with Enterococcus faecium: CCCC(=O)N1CC(=O)/C(=C(\CC23CC4CC(CC(C4)C2)C3)NCCCN2CCCCC2C)C1=O (stereo not given)
a: 64 µg/mL

---

Entries annotated with measured MIC
tested on: Streptococcus pneumoniae; experiment: Antimicrobial activity against penicillin- and erythromycin-resistant Streptococcus pneumoniae; assay type: functional
Numeric answer only, unit µg/mL assumed.

# count of solved cases: 3
CCOC(=O)[C@]12CO[C@H](C(C)(C)C)N1C(=O)/C(=C(\C)NCCOc1ccccc1)C2=O | 1
CCCCCCCCCCC/C(NCCCOC(C)C)=C1\C(=O)CNC1=O | 4
CCCC(=O)N1CC(=O)/C(=C(\CC23CC4CC(C)(CC(C)(C4)C2)C3)NCCCN2CCOCC2)C1=O | 16

Please examine the following record next.
q: Suppose we examine the compound CCCCCCCCC/C(NC(C)CCCN(CC)CC)=C1/C(=O)N2[C@@H](C(C)(C)C)OC[C@]2(C(=O)OC)C1=O (some centres undefined) ; what MIC value has been reported?
a: 4

---

test system: Haemophilus influenzae; assay: Antimicrobial activity against Haemophilus influenzae ATCC 31517 MMSA; type: functional
MEASUREMENT_LABEL: MIC

q: Suppose we examine the molecule CCOC(=O)[C@]12CO[C@H](C(C)(C)C)N1C(=O)/C(=C(\C)Nc1ncc(Cl)cn1)C2=O ; what MIC value has been reported?
a: > 32 µg/mL

q: Another molecule to look at: C/C(NCCOc1ccccc1Cl)=C1/C(=O)[C@@H]2CCCC(=O)N2C1=O
a: > 32 µg/mL

q: Another molecule to look at: CCCCCCCCC/C(=C1\C(=O)CNC1=O)N1CCCCC1
a: 64 µg/mL

q: Another molecule to look at: C/C(NCCOc1ccccc1Cl)=C1/C(=O)CN(C(=O)OC(C)(C)C)C1=O
a: > 64 µg/mL

---

test system: Staphylococcus aureus; assay: Antimicrobial activity against Staphylococcus aureus Oxford; format: functional
MEASUREMENT_LABEL: MIC

CCCCCCCCC/C(NC(C)CCCN(CC)CC)=C1/C(=O)N2[C@@H](C(C)(C)C)OC[C@]2(C(=O)OC)C1=O (stereo not given in full) | 16 µg/mL

q: Suppose we examine the compound COC(=O)[C@@]12CO[C@@H](C(C)(C)C)N1C(=O)/C(=C(\C)Nc1ccccc1)C2=O ; what MIC value has been reported?
a: > 32 µg/mL

q: Another compound to look at: O=C(O)c1cn(C2CC2)c2cc(N3CCNCC3)c(F)cc2c1=O [CIPROFLOXACIN]
a: 0.12 µg/mL

q: Another compound to look at: CCCCCCCCCCC/C(NCCCOC(C)C)=C1\C(=O)[C@@H]2CCCC(=O)N2C1=O
a: > 64 µg/mL

q: Another compound to look at: CCCCCCCCC/C(=C1\C(=O)CNC1=O)N1CCCCC1
a: 16 µg/mL

---

Entries annotated with measured MIC
system: Haemophilus influenzae; test: Antimicrobial activity against LS2 Efflux knock-out Haemophilus influenzae; assay type: functional

q: Suppose we examine the compound CCCCCCCCCCCCC/C(Nc1ccccc1)=C1\C(=O)CNC1=O ; what MIC value has been reported?
a: > 32 mg/L

q: Another compound to look at: CCCCCC/C(=C1/C(=O)N2[C@@H](C(C)(C)C)OC[C@]2(C(=O)OC)C1=O)N1CCCCC1
a: > 32 mg/L

q: Another compound to look at: CCCC(=O)N1CC(=O)/C(=C(\CC23CC4CC(C)(CC(C)(C4)C2)C3)NCCCN2CCOCC2)C1=O
a: 8 mg/L

q: Another compound to look at: CCCCCCCCC/C(=C1\C(=O)CNC1=O)N1CCCCC1
a: > 64 mg/L

---

Entries annotated with measured MIC
test system: Staphylococcus aureus; experiment: Antimicrobial activity against Staphylococcus aureus Oxford; type: functional

# count of solved cases: 3
C/C(NCCOc1ccccc1)=C1/C(=O)[C@@H]2CO[C@@H](C(C)(C)C)N2C1=O | > 32 µg/mL
CCCCCCCCCC/C(NCCCOC(C)C)=C1\C(=O)C(CCSC)N(C(C)=O)C1=O (centres undefined) | > 32 µg/mL
C/C(NCCOc1ccccc1)=C1/C(=O)[C@@H]2CCCC(=O)N2C1=O | > 32 µg/mL

q: Suppose we examine the compound C/C(NCCOc1ccccc1Cl)=C1/C(=O)[C@@H]2CCCC(=O)N2C1=O ; what MIC value has been reported?
a: > 32 µg/mL

q: Another compound to look at: CCCCCCN/C(=C1/C(=O)CNC1=O)c1ccccc1
a: > 32 µg/mL

q: Another compound to look at: CCCCCCCCCN/C(C)=C1/C(=O)N2[C@@H](C(C)(C)C)OC[C@]2(C(=O)OC)C1=O
a: > 32 µg/mL

q: Another compound to look at: CCOC(=O)[C@]12CO[C@H](C(C)(C)C)N1C(=O)/C(=C(/CC13CC4CC(CC(C4)C1)C3)NCC(C)(C)CN(C)C)C2=O
a: > 32 µg/mL

---

test system: Enterococcus faecium; assay: Antimicrobial activity against vancomycin-resistant Enterococcus faecium; type: functional
MEASUREMENT_LABEL: MIC

# count of solved cases: 4
CCCCCCN1CC(=O)/C(=C(/NC2CCCCC2)C2CCCCC2)C1=O | > 64 µg/mL
C/C(NCCOc1ccccc1Cl)=C1/C(=O)[C@@H]2CCCC(=O)N2C1=O | > 32 µg/mL
CCCCC/C(NC(C)CCCN(CC)CC)=C1\C(=O)C(CCSC)N(C(=O)CC(C)CC(C)(C)C)C1=O (stereo not given) | 8 µg/mL
CCOC(=O)[C@]12CO[C@H](C(C)(C)C)N1C(=O)/C(=C(/CC13CC4CC(CC(C4)C1)C3)NCCCN1CCOCC1)C2=O | > 64 µg/mL

Please examine the following record next.
q: Provide value of MIC for this record tested with Enterococcus faecium: CCCCCCC(=O)N1CC(=O)/C(=C(\CCCCCC)NC2CCCCC2)C1=O
a: > 32 µg/mL

---

tested on: Haemophilus influenzae; experiment: Antimicrobial activity against LS2 Efflux knock-out Haemophilus influenzae; assay type: functional
Entries annotated with measured MIC
Numeric answer only, unit µg/mL assumed.

q: Provide value of MIC for this record tested with Haemophilus influenzae: CCCCCCCCCCC/C(NCCCOC(C)C)=C1\C(=O)CNC1=O
a: 2

---

Entries annotated with measured MIC
tested on: Haemophilus influenzae; test: Antimicrobial activity against Haemophilus influenzae ATCC 31517 MMSA; type: functional

# count of solved cases: 7
CCCCCCC(=O)N1CC(=O)/C(=C(\CCCCCC)NC2CCCCC2)C1=O | > 32 µg/mL
CC(C)(C)[C@H]1OC[C@@H]2C(=O)/C(=C(/NCCCCN)c3ccccc3)C(=O)N21 | > 32 µg/mL
CCCCCCCCC/C(NC(C)CCCN(CC)CC)=C1/C(=O)N2[C@@H](C(C)(C)C)OC[C@]2(C(=O)OC)C1=O (stereo partly drawn) | > 64 µg/mL
CCCCCCCCCCC/C(NCCCOC(C)C)=C1/C(=O)N[C@@H](CCCC(=O)NCCCOC(C)C)C1=O | > 64 µg/mL
CSCCC1C(=O)/C(=C(\CC23CC4CC(C)(CC(C)(C4)C2)C3)NCC(C)(C)CN(C)C)C(=O)N1C(C)=O (stereo not drawn) | > 64 µg/mL
COC(=O)[C@]12CO[C@H](C(C)(C)C)N1C(=O)/C(=C(/CCCOc1ccccc1)NCCN1CCCCC1)C2=O | > 32 µg/mL
CCCCCCC(=O)N1CC(=O)/C(=C(\CCCOc2ccccc2)NCCCOC(C)C)C1=O | > 32 µg/mL

q: Suppose we examine the compound C/C(NCCOc1ccccc1)=C1\C(=O)N2[C@H](C(C)(C)C)OC[C@@]2(C)C1=O (racemic) ; what MIC value has been reported?
a: 4 µg/mL
